tested on: Beta-TC3; test: Effect on membrane potential of mitochondria in beta-TC3 cells […]; format: functional; conditions: Mus musculus, read-out: ED50 (the source's name)
MEASUREMENT_TYPE: EC50

I am curious: what EC50 value has been reported for N#CN/C(=N\C1CCCC1)Nc1cc(C(F)(F)F)cc(C(F)(F)F)c1 ?
> 30 µM
